- targetUnderTest: PC2 (Mus musculus, UniProt P21661)
- Sequence (P21661 109-637): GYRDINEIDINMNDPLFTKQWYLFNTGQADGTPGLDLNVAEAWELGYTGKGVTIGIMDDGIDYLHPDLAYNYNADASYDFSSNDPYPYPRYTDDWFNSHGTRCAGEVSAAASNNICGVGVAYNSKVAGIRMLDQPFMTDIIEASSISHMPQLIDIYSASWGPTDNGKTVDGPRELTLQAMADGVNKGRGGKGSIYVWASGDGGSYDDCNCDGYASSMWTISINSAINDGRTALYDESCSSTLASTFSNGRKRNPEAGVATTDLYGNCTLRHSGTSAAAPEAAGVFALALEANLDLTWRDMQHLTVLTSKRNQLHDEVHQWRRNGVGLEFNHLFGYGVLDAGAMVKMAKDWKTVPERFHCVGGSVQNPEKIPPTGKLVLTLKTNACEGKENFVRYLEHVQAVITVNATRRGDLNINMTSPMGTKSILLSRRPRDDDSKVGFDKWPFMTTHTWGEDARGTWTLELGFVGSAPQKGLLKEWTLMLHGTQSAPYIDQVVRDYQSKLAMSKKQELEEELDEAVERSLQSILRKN
- procedureDetails: PC2 enzyme assay, hydrolysis of pERTKR-MCA at pH 5.0
- Assay type: biochemical
- Design: made in house
Provide the reported Ki of each item.
Your answer is read as µM, so omit the unit and give the number.

Q: Give recorded Ki. Ac-KRKRRR-NH2 [Ac-KRKRRR-NH2]
Ans: 391

Q: Give recorded Ki. Ac-RRKRRR-NH2 [Ac-RRKRRR-NH2]
Ans: 461

Q: Give recorded Ki. Ac-RHKRRR-NH2 [Ac-RHKRRR-NH2]
Ans: 152

Q: Give recorded Ki. Ac-MRKRRR-NH2 [Ac-MRKRRR-NH2]
Ans: 1500

Q: Give recorded Ki. Ac-HHKRRR-NH2 [Ac-HHKRRR-NH2]
Ans: 235

Q: Give recorded Ki. Ac-KHKRRR-NH2 [Ac-KHKRRR-NH2]
Ans: 280

Q: Give recorded Ki. Ac-HRKRRR-NH2 [Ac-HRKRRR-NH2]
Ans: 309

Q: Give recorded Ki. Ac-MHKRRR-NH2 [Ac-MHKRRR-NH2]
Ans: 216
